Cited source for all entries: the supplement of paper PMC12667976

Each record here notes measured AIRE transcriptional activation functional score.
B1: library; numbered along this chain (parent)
chain: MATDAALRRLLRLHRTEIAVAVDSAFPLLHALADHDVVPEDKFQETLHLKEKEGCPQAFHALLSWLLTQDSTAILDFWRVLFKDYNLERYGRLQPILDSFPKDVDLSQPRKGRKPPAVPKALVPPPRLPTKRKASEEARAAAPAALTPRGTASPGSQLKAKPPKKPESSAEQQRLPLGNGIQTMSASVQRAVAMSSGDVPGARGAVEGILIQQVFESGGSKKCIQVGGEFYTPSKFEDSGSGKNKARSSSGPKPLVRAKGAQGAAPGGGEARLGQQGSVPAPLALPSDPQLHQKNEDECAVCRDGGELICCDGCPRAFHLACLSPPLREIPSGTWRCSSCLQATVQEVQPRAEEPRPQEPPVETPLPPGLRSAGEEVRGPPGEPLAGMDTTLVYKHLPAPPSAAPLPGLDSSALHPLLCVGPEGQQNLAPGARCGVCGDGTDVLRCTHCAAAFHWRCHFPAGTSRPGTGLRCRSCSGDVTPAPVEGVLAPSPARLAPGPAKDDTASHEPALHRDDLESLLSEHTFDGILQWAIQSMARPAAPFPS

variants of: B1; assay: AIRE transcriptional activation functional score (insulin promoter-GFP; nonsense median 0, synonymous median 1) (normalised score); higher = higher AIRE activity (more reporter activation); conditions: with insulin promoter-GFP reporter in HEK293
Observed Property: AIRE transcriptional activation functional score

> print(dat)
    mutation.name  reported.measurement
 1          P126R               -0.0135
 2          A258M                 0.409
 3          D103C                  1.14
 4          A532V                 0.836
 5          G269T                  1.51
 6           L29H                -0.121
 7          A510E                  1.33
 8          L488C                 0.742
 9          D297C                 0.929
10          K164Y                 0.624
11          T524K                 0.256
12          S153R                 0.588
13          H396K                  1.61
14           H35Y                 0.805
15           T72L                  0.84
16          G421K                 0.558
17           Q69T                -0.236
18          S239I                 0.737
19          K133P                 0.469
20          L323C                 0.656
21          G421L                 0.327
22           H30V                -0.417
